# System: MV4;11 cells
# assay explanation: Cell viability assay (CellTiter-Glo) in MV4;11 cells
# Format: cell-based
# experimental parameters: Homo sapiens, MV4-11, 72 h, MV4;11 cells, compound alone, three days; read-out: MV4; 11 IC50
Reported IC50 values for the following compounds.

O=C1CCC(N2C(=O)c3ccc(NC[C@H]4C[C@H](n5cc(-c6ncc(F)cc6OC6CC6)c(C6CC6)n5)C4)cc3C2=O)C(=O)N1 (stereo partly shown) [GS-752]	< 10 nM
Cc1cccc2cn([C@H]3C[C@H](CNc4ccc5c(c4)C(=O)N(C4CCC(=O)NC4=O)C5=O)C3)nc12 (stereo partly shown) [GS-694]	> 1000 nM

For O=C1CCC(N2C(=O)c3ccc(NC[C@H]4C[C@H](n5ncc6ccccc65)C4)cc3C2=O)C(=O)N1 (stereo partly shown) [GS-728] on MV4;11 cells, measured IC50 was > 1000 nM

IC50 of Cn1cncc1-c1cn([C@H]2C[C@H](CNc3ccc4c(c3)C(=O)N(C3CCC(=O)NC3=O)C4=O)C2)nc1C1CC1 (stereo partly shown) [GS-691] , assay on MV4;11 cells, is > 1000 nM

The value of IC50 recorded for Cc1nc(-c2cn([C@H]3C[C@H](CNc4ccc5c(c4)C(=O)N(C4CCC(=O)NC4=O)C5)C3)nc2C2CC2)ccc1F (stereo partly shown) [GS-732] when tested on MV4;11 cells reads 100 to 1000 nM

# value of IC50, MV4;11 cells, item O=C1CCC(N2C(=O)c3ccc(NC[C@H]4C[C@H](n5cc(-c6cc7nn(C8CC(O)C8)cc7cn6)c(C6CC6)n5)C4)cc3C2=O)C(=O)N1 (stereo partly shown) [GS-750] = < 10 nM

Measured IC50 for this entry O=C1CCC(N2C(=O)c3ccc(NC[C@H]4C[C@H](n5nc(C6CC6)c6cncnc65)C4)cc3C2=O)C(=O)N1 (stereo partly shown) [GS-663] on MV4;11 cells: > 1000 nM

* * *

Items are presented alongside their recorded IC50.
# Tested on: MV4;11 cells
# assay explanation: Cell viability assay (CellTiter-Glo) in MV4;11 cells
# Type: cell-based
# experimental parameters: Homo sapiens, MV4-11, 72 h, MV4;11 cells, compound alone, three days; read-out: MV4; 11 IC50

Reference set (5 entries):
Cn1ncc2cnc(-c3cn([C@H]4C[C@H](COc5ccc6c(c5)C(=O)N(C5CCC(=O)NC5=O)C6=O)C4)nc3C3CC3)cc21 (stereo partly drawn) [GS-761]	> 1000 nM
O=C1CCC(N2C(=O)c3ccc(NC[C@H]4C[C@H](n5cc(-c6ncccc6C6CNC6)c(C6CC6)n5)C4)cc3C2=O)C(=O)N1 (stereo partly drawn) [GS-745]	> 1000 nM
O=C1CCC(N2C(=O)c3ccc(NC[C@H]4C[C@H](n5cc(-c6ccccc6N6CCNCC6)c(C6CC6)n5)C4)cc3C2=O)C(=O)N1 (stereo partly drawn) [GS-652]	> 1000 nM
O=C1CCC(N2Cc3ccc(NC[C@H]4C[C@H](n5cc(-c6cnc7ccccc7n6)c(C6CC6)n5)C4)cc3C2=O)C(=O)N1 (stereo partly drawn) [GS-662]	> 1000 nM
O=C1CCC(N2C(=O)c3ccc(NC[C@H]4C[C@H](n5cc(-c6ncccc6OC6CC6)c(C6CC6)n5)C4)cc3C2=O)C(=O)N1 (stereo partly drawn) [GS-641]	< 10 nM

Summary for this compound, Cn1nccc1-c1cn([C@H]2C[C@H](CNc3ccc4c(c3)C(=O)N(C3CCC(=O)NC3=O)C4=O)C2)nc1C1CC1 (stereo partly drawn) [GS-690] : IC50 is > 1000 nM

* * *

# Tested on: MV4;11 cells
# assay explanation: Cell viability assay (CellTiter-Glo) in MV4;11 cells
# Format: cell-based
# experimental parameters: Homo sapiens, MV4-11, 72 h, read-out: MV4; 11 IC50 (nM)
quantity name: IC50

Example entries begin here.
O=C1CCC(N2C(=O)c3ccc(NC[C@H]4C[C@H](n5cc(Nc6ccncc6)c(C6CC6)n5)C4)cc3C2=O)C(=O)N1 (stereo partly drawn)	> 1000 nM
CC(C)n1ncc2ccc(-c3cn([C@H]4C[C@H](CNc5ccc6c(c5)C(=O)N(C5CCC(=O)NC5=O)C6=O)C4)nc3C3CC3)nc21 (stereo partly drawn)	10 to 100 nM
O=C1CCC(N2C(=O)c3ccc(NC[C@H]4C[C@H](n5cc(-n6ncc7ccccc76)c(C6CC6)n5)C4)cc3C2=O)C(=O)N1 (stereo partly drawn)	< 10 nM
CC(C)n1ncc2c(-c3cn([C@H]4C[C@H](CNc5ccc6c(c5)C(=O)N(C5CCC(=O)NC5=O)C6=O)C4)nc3C3CC3)ncc(F)c21 (stereo partly drawn)	< 10 nM
O=C1CCC(N2C(=O)c3ccc(NC[C@H]4C[C@H](n5cc(Cc6ccccc6)c(C6CC6)n5)C4)cc3C2=O)C(=O)N1 (stereo partly drawn)	10 to 100 nM

Noted for CN(C)c1nc(-c2cn([C@H]3C[C@H](CNc4ccc5c(c4)C(=O)N(C4CCC(=O)NC4=O)C5=O)C3)nc2C2CC2)ccc1F (stereo partly drawn) : its IC50 reads 10 to 100 nM

* * *

pIC50: recorded values
# System: MV4;11 cells
# assay explanation: Cell viability assay (CellTiter-Glo) in MV4;11 cells
# Format: cell-based
# experimental parameters: Homo sapiens, MV4-11, 72 h, MV4;11 cells, compound alone, three days; read-out: MV4; 11 IC50
pIC50: −log10 of the molar value.

// solved cases for pIC50 follow
O=C1CCC(N2C(=O)c3ccc(NC[C@H]4C[C@H](n5cc(-c6cc7c(cn6)cnn7CC(F)(F)F)c(C6CC6)n5)C4)cc3C2=O)C(=O)N1 (relative stereo) [GS-704]	7.00 to 8.00
Cc1nc(-c2cn([C@H]3C[C@@H]3CNc3ccc4c(c3)C(=O)N(C3CCC(=O)NC3=O)C4=O)nc2C2CC2)ccc1F (relative stereo) [GS-643]	< 6.00
Cc1nc(-c2cn([C@H]3C[C@H](CNc4cc5c(cc4F)C(=O)N(C4CCC(=O)NC4=O)C5=O)C3)nc2C2CC2)ccc1F (stereo partly drawn) [GS-716]	< 6.00
Cn1ccc2nc(-c3cn([C@H]4C[C@H](CNc5ccc6c(c5)C(=O)N(C5CCC(=O)NC5=O)C6=O)C4)nc3C3CC3)ccc21 (stereo partly drawn) [GS-695]	7.00 to 8.00
CN1CC(n2cc3cnc(-c4cn([C@H]5C[C@H](CNc6ccc7c(c6)C(=O)N(C6CCC(=O)NC6=O)C7=O)C5)nc4C4CC4)cc3n2)C1 (stereo partly drawn) [GS-680]	> 8.00
COc1cnc2c(c1)c(C1CC1)nn2[C@H]1C[C@H](CNc2ccc3c(c2)C(=O)N(C2CCC(=O)NC2=O)C3=O)C1 (stereo partly drawn) [GS-682]	7.00 to 8.00
CC(C)n1ncc2cnc(-c3cn([C@H]4C[C@H](CNc5ccc6c(c5)C(=O)N(C5CCC(=O)NC5=O)C6=O)C4)nc3C(F)F)cc21 (stereo partly drawn) [GS-656]	7.00 to 8.00
O=C1CCC(N2C(=O)c3ccc(NC[C@H]4C[C@H](n5cc(-c6ncc(F)c7[nH]ccc67)c(C6CC6)n5)C4)cc3C2=O)C(=O)N1 (stereo partly drawn) [GS-733]	> 8.00

Record summary for N[C@H]1C[C@@H](n2ncc3cnc(-c4cn([C@H]5C[C@H](CNc6ccc7c(c6)C(=O)N(C6CCC(=O)NC6=O)C7=O)C5)nc4C4CC4)cc32)C1 (stereo partly drawn) [GS-778] : reported pIC50 = 7.00 to 8.00

Consider O=C1CCC(N2C(=O)c3ccc(NC[C@H]4C[C@H](n5cc(-c6cccc(N7CCCC7)n6)c(C6CC6)n5)C4)cc3C2=O)C(=O)N1 (relative stereo) [GS-748] . Its measured pIC50 is 7.00 to 8.00

Entry CN1CCC(n2ncc3cnc(-c4cn([C@H]5C[C@H](CNc6ccc7c(c6)C(=O)N(C6CCC(=O)NC6=O)C7=O)C5)nc4C4CC4)cc32)CC1 (stereo partly drawn) [GS-770] ; pIC50 = 7.00 to 8.00

Noted for O=C1CCC(N2C(=O)c3ccc(NCCC4CC5(C4)CC(n4nc(C6CC6)c6ccccc64)C5)cc3C2=O)C(=O)N1 (stereo not drawn) [GS-783] : its pIC50 reads 7.00 to 8.00

* * *

# Test system: MV4;11 cells
# assay explanation: Cell viability assay (CellTiter-Glo) in MV4;11 cells
# Format: cell-based
# experimental parameters: Homo sapiens, MV4-11, 72 h, MV4;11 cells, compound alone, three days; read-out: MV4; 11 IC50
pIC50: −log10 of the molar value.
Catalogue of pIC50 values

Below, each entry is followed by its recorded pIC50 result.
O=C1CCC(N2C(=O)c3ccc(OC[C@H]4C[C@H](n5cc(-c6cnc7ccccc7n6)c(C6CC6)n5)C4)cc3C2=O)C(=O)N1 (stereo partly drawn) [GS-640]	< 6.00
Cn1ccnc1-c1cn([C@H]2C[C@H](CNc3ccc4c(c3)C(=O)N(C3CCC(=O)NC3=O)C4=O)C2)nc1C1CC1 (stereo partly drawn) [GS-687]	< 6.00
O=C1CCC(N2C(=O)c3ccc(NC[C@H]4C[C@H](n5cc(Nc6cccnc6)c(C6CC6)n5)C4)cc3C2=O)C(=O)N1 (stereo partly drawn) [GS-670]	7.00 to 8.00
O=C1CCC(N2C(=O)c3ccc(NC[C@H]4C[C@H](n5cc(-c6ccc7c(n6)CCC7O)c(C6CC6)n5)C4)cc3C2=O)C(=O)N1 (stereo partly drawn) [GS-705]	< 6.00
Cn1ncc2nc(-c3cn([C@H]4C[C@H](CNc5ccc6c(c5)C(=O)N(C5CCC(=O)NC5=O)C6=O)C4)nc3C3CC3)ccc21 (stereo partly drawn) [GS-699]	7.00 to 8.00

Field: next compound
Value of measured pIC50 for the entry O=C1CCC(N2C(=O)c3ccc(NC[C@H]4C[C@H](n5cc(-c6ccc7cc[nH]c7n6)c(C6CC6)n5)C4)cc3C2=O)C(=O)N1 (stereo partly drawn) [GS-721] : > 8.00
